B1: Hairpin Ribozyme (parent)
chain: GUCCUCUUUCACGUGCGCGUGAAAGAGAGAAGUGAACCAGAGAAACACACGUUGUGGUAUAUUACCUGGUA

- Variants of: B1
- experimental_protocol: self-cleavage, relative activity (ratio to wild type); higher = more cleavage; co-transcriptional
This listing pairs variants with measured self-cleavage.

Enquiry: I would be grateful if you could share the reported self-cleavage for A31C C50A .
Return: 0.139

Enquiry: Give its self-cleavage value. Item: A28U U67C
Return: 0.12

Reference for the values: the RNAGym collection of RNA variant scans (doi:10.7554/elife.80360)
